Data provenance: ChEMBL document CHEMBL3352605

experiment: Plasma concentration in CD-1 mouse at 10 mg/kg, ip measured at 120 mins post dose; format: ADME, organism-based; parameters: dose 10 mg/kg, route intraperitoneal
readout.type: concentration at 2 h (ng/mL)
All answers are understood in ng/mL, so give the number only.

Query string: Recorded concentration at 2 h of FCC[C@H]1C[C@@H]1c1cncc(N2C[C@H]3CNC[C@H]3C2)c1.O=C(O)C(F)(F)F , please.
Result string: 146

* * *

biological target: Neuronal acetylcholine receptor; alpha4/beta2 (Homo sapiens, UniProt P17787+P43681); assay: Agonist activity at human alpha4beta2 nAChR expressed in SH-EP1 cells by [86Rb+] ion efflux assay; assay type: cell-based; conditions: read-out: EC50
Sequence (P17787 whole entry): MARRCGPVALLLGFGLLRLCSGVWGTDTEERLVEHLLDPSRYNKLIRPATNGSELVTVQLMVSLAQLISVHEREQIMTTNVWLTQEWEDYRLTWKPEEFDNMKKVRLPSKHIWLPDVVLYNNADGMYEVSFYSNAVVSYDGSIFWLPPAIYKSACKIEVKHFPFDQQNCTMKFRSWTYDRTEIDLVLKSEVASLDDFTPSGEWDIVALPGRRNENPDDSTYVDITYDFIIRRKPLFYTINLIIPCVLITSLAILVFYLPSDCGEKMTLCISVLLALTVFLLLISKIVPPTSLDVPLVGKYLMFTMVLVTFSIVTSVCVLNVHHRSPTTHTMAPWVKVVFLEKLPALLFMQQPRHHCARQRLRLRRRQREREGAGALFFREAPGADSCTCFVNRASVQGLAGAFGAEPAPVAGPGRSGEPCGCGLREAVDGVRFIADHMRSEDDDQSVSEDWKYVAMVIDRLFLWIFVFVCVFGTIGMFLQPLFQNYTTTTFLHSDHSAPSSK
Sequence (P43681 whole entry): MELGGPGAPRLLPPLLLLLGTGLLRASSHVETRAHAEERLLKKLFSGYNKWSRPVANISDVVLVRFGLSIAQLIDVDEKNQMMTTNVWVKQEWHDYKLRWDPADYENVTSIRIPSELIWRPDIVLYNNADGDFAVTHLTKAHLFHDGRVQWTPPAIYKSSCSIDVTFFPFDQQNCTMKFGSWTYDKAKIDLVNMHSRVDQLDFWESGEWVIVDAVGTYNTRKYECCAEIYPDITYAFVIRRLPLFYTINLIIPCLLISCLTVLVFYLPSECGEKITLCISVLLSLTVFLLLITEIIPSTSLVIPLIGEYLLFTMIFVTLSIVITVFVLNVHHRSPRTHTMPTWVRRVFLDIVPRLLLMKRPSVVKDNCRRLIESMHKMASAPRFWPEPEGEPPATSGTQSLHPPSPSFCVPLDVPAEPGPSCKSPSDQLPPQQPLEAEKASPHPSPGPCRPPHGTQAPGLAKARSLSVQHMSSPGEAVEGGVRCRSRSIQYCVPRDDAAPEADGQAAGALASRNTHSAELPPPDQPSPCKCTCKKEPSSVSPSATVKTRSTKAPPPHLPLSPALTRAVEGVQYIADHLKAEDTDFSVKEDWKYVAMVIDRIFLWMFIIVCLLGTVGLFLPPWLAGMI
readout.type: EC50 (nM)
All answers are understood in nM, so give the number only.

Query string: Recorded EC50 of COCC[C@H]1C[C@@H]1c1cncc(N2C[C@H]3CNC[C@H]3C2)c1.O=C(O)C(F)(F)F , please.
Result string: 14

Query string: Recorded EC50 of O=C(O)C(F)(F)F.OCC[C@H]1C[C@@H]1c1cncc(N2C[C@H]3CNC[C@H]3C2)c1 , please.
Result string: 18

Query string: Recorded EC50 of FCC[C@H]1C[C@@H]1c1cncc(N2C[C@H]3CNC[C@H]3C2)c1.O=C(O)C(F)(F)F , please.
Result string: 25

Query string: Recorded EC50 of CCOCC[C@H]1C[C@@H]1c1cncc(N2C[C@H]3CNC[C@H]3C2)c1.O=C(O)C(F)(F)F , please.
Result string: 20

* * *

// values below are reported Ki
target: Neuronal acetylcholine receptor; alpha3/beta2 (Rattus norvegicus, UniProt P04757+P12390); test: Displacement of [3H]epibatidine from rat forebrain alpha3beta2 nAChR by competition binding assay
Sequence (P04757 whole entry): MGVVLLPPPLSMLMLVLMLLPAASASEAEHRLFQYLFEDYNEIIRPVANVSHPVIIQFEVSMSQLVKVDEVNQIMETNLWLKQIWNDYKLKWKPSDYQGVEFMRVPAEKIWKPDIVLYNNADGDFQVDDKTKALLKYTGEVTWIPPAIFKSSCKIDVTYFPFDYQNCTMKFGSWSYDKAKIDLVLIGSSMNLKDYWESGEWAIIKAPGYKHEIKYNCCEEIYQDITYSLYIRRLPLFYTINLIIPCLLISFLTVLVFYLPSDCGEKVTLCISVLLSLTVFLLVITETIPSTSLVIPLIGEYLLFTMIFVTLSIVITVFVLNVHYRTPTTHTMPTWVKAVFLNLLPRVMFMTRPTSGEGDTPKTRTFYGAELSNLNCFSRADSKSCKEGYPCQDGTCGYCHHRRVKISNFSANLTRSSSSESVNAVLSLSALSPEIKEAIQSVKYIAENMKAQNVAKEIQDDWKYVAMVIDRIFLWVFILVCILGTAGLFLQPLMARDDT
Sequence (P12390 whole entry): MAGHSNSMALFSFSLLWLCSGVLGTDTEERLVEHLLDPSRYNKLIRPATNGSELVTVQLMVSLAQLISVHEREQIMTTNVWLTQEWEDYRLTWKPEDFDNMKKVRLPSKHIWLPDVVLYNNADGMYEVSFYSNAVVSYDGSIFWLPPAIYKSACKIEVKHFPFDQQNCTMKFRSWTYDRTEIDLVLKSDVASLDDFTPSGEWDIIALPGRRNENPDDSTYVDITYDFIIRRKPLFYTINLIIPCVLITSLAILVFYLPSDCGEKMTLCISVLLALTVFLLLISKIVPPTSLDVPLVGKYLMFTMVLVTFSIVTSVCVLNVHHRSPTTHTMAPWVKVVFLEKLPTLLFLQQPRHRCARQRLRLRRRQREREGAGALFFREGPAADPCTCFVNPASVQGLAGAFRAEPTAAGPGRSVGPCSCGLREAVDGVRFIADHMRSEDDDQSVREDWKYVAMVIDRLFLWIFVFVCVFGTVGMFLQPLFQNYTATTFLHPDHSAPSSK
All answers are understood in µM, so give the number only.

For orientation, consider the following solved cases.
>>> value_measured("COCC[C@H]1C[C@@H]1c1cncc(N2C[C@H]3CNC[C@H]3C2)c1.O=C(O)C(F)(F)F")
0.026
>>> value_measured("c1cncc(N2C[C@H]3CNC[C@H]3C2)c1")
0.0027
>>> value_measured("O=C(O)C(F)(F)F.OCC[C@H]1C[C@@H]1c1cncc(N2C[C@H]3CNC[C@H]3C2)c1")
0.019

Query string: Recorded Ki of FCC[C@H]1C[C@@H]1c1cncc(N2C[C@H]3CNC[C@H]3C2)c1.O=C(O)C(F)(F)F , please.
Result string: 0.01

Query string: Recorded Ki of CCOCC[C@H]1C[C@@H]1c1cncc(N2C[C@H]3CNC[C@H]3C2)c1.O=C(O)C(F)(F)F , please.
Result string: 0.0068

* * *

assay: Drug uptake in CD-1 mouse brain at 10 mg/kg, ip measured at 120 mins post dose; format: ADME, organism-based; design: dose 10 mg/kg, route intraperitoneal; settings: read-out: Drug uptake
readout.type: concentration at 2 h (ng/mL)
All answers are understood in ng/mL, so give the number only.

Query string: Recorded concentration at 2 h of FCC[C@H]1C[C@@H]1c1cncc(N2C[C@H]3CNC[C@H]3C2)c1.O=C(O)C(F)(F)F , please.
Result string: 256

* * *

target: Neuronal acetylcholine receptor; alpha4/beta2 (Homo sapiens, UniProt P17787+P43681); assay: Inactivation of human alpha4beta2 nAChR expressed in SH-EP1 cells by [86Rb+] ion efflux assay
readout.type: IC50 (µM)
All answers are understood in µM, so give the number only.

For orientation, consider the following solved cases.
>>> value_measured("CCOCC[C@H]1C[C@@H]1c1cncc(N2C[C@H]3CNC[C@H]3C2)c1.O=C(O)C(F)(F)F")
0.012
>>> value_measured("O=C(O)C(F)(F)F.OCC[C@H]1C[C@@H]1c1cncc(N2C[C@H]3CNC[C@H]3C2)c1")
0.015
>>> value_measured("COCC[C@H]1C[C@@H]1c1cncc(N2C[C@H]3CNC[C@H]3C2)c1.O=C(O)C(F)(F)F")
0.011

Here's the next entry for you.
Query string: Recorded IC50 of FCC[C@H]1C[C@@H]1c1cncc(N2C[C@H]3CNC[C@H]3C2)c1.O=C(O)C(F)(F)F , please.
Result string: 0.02
